- experiment description: NCI Yeast Anticancer Drug Screen. Data for the mec2-1 strain (AID 157)
- conditions used: S. cerevisiae mec2-1 strain, at 50.0 µM, stronger effect = higher value
The panel holds about 79,000 compounds, 15% with a hit somewhere; the sample as a whole holds those more often.
Output rule met for growth inhibition not less than -10%; output rule not met otherwise.

molecule: COC1/C=C/C(C)C(C(C)C(OC)C(C)CCC(=O)C(C)C(C/C=C/N(C)C=O)OC)OC(=O)/C=C/C=C(\C)CC(OC)C(OC)C2=CC(=O)O[C@@H](C(C)C(OC)CC(OC)/C=C/C(C)C(O)C1)[C@H]2O (stereo not given in full)
label class: rule met

molecule: Cc1cn(CCCn2cnc3c(N)ncnc32)c(=O)[nH]c1=O
label class: rule not met

molecule: O=c1cc(C(Br)(Br)Br)[nH]c2ccccc12
label class: rule met

molecule: CC(=O)c1ccc2ccc3ccccc3c2c1O
label class: rule met

---

- experiment description: NCI Yeast Anticancer Drug Screen. Data for the mlh1 rad18 strain (AID 175)
- conditions used: S. cerevisiae mlh1 rad18 strain growth inhibition; at 50.0 µM; stronger effect = higher value
Compounds without any hit were thinned out: in the full panel of roughly 79,000, 15% have a hit.

molecule: Cn1c2nc(=O)n(-c3ccccc3)c(=O)c-2nc2c1CCCC2
unit of measurement: %
growth inhibition: -60.7
--
molecule: CCN(CC)CCNc1ccc(OC)c2sc3ccccc3c(=O)c12
unit of measurement: %
growth inhibition: 24.6
--
molecule: O=C(c1ccc2c(c1)no[n+]2[O-])N(CCO)CCO
unit of measurement: %
growth inhibition: 19.9
--
molecule: CC(O)C(c1ccc(N(C)C)cc1)c1ccc(N(C)C)cc1 (stereo not drawn)
unit of measurement: %
growth inhibition: 2.45
--
molecule: Cc1sc2ncnc(Cl)c2c1C
unit of measurement: %
growth inhibition: 4.05
--
molecule: Cc1[nH]c2ccccc2c1C(c1ccccc1O)c1c(C)[nH]c2ccccc12
unit of measurement: %
growth inhibition: 33.4
--
molecule: CC(C)(C)C(=O)OCn1cc2c(=O)[nH]cnc2n1
unit of measurement: %
growth inhibition: 9.15
--
molecule: Nc1cc2c3c(cccc3c1Br)C(=O)OC2=O
unit of measurement: %
growth inhibition: 99.5
--
molecule: Cc1sc2ccnc(C)c2c1S(=O)(=O)O
unit of measurement: %
growth inhibition: -12.4
--
molecule: CCC(=O)NC(Nc1cccc(F)c1)(C(F)(F)F)C(F)(F)F
unit of measurement: %
growth inhibition: -66.8
--
molecule: O=C(Nc1ccc(F)cc1)c1ccc(Cl)cc1Cl
unit of measurement: %
growth inhibition: -2.35
--
molecule: C/C(=N/O)c1ccc(O)cc1O
unit of measurement: %
growth inhibition: 13.8
--
molecule: Nc1cnc(N)nc1
unit of measurement: %
growth inhibition: -17.2

---

- experiment description: NCI Yeast Anticancer Drug Screen. Data for the rad50 strain (AID 155);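 further: 0% = growth of vehicle-only cultures of the same strain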
- conditions used: S. cerevisiae rad50 strain growth inhibition; at 50.0 µM; stronger effect = higher value
This is part of a sample that, as a whole, favours compounds with a hit. Of some 79,000 tested, about 15% had one in any assay.
// reported growth inhibition per item

compound: CCCCOS(=O)(=O)c1ccc([N+](C)(C)C)cc1
growth inhibition (%): 3.9

compound: COc1ccc2c(c1)CC[C@@H]1[C@@H]2CC[C@@]2(C)[C@H]1C[C@@](C)(O)[C@H]2O
growth inhibition (%): -5.65

compound: O=C(O)c1cc(=O)c2cc(Cc3ccccc3)ccc2[nH]1
growth inhibition (%): 4.7

compound: O=C1C(=O)N(c2ccccc2Cl)C(=O)N1Cc1ccccc1
growth inhibition (%): 10.7

compound: CC(=O)Oc1ccc(/C=N\N(C)CN(C)/N=C/c2ccc(OC(C)=O)cc2)cc1
growth inhibition (%): 14

compound: O=S1(=O)CCCCc2ccccc21
growth inhibition (%): 7.35

compound: C(CC1CCNCC1)CC1CCNCC1
growth inhibition (%): -39.7

compound: COC(=O)C1CSC(C)(C)N1 (centres undefined)
growth inhibition (%): 10.6

compound: O=C(OC1COC(OC(=O)c2ccc([N+](=O)[O-])cc2)C(OC(=O)c2ccc([N+](=O)[O-])cc2)C1OC(=O)c1ccc([N+](=O)[O-])cc1)c1ccc([N+](=O)[O-])cc1 (centres undefined)
growth inhibition (%): -6.15

compound: CC(=O)CC(=O)N1C(C)CCCC1C (centres undefined)
growth inhibition (%): -12.3

compound: CSC(SC)=C(C(=O)c1ccc(Cl)cc1)n1c(=O)sc2cc(Br)ccc21
growth inhibition (%): -19

compound: COc1ccc(/C=N/NC(=O)c2ccc(N)cc2)c(OC)c1
growth inhibition (%): 5.7

compound: CN(C)c1ccc(C(=O)c2ccc([N+](=O)[O-])cc2)cc1
growth inhibition (%): -1.6

compound: c1ccc2c(c1)SCCCSCCSCCCS2
growth inhibition (%): -15.2

compound: Cc1c(C#N)c(N)[nH]c(=S)c1C#N
growth inhibition (%): 5.5

compound: c1ccc(-c2ccc3c4ccccc4ccn23)cc1
growth inhibition (%): 9.2

compound: COc1ccc2c(c1)CCCN2C(N)=Nc1ccc([N+](=O)[O-])cc1
growth inhibition (%): -4.2

compound: O=C(O)CCCCCNC(=O)c1ccccc1
growth inhibition (%): 18.3

compound: CCCCCCCCCCCCCCCC1CCCC2CCCCC12 (centres undefined)
growth inhibition (%): -9.05

compound: CC(C)CCCC(C)C1CCC2(C)C3CCC4C(C)(C)C(OCC(C)(C)C)CCC4(C)C3CCC12C (centres undefined)
growth inhibition (%): 34

compound: COC12COC(=O)C1C(c1ccc3c(c1)OCO3)c1cc3c(cc1O2)OCO3 (centres undefined)
growth inhibition (%): 21.8

compound: NNC(=O)CCC(=O)Nc1ccc(Cl)cc1Cl
growth inhibition (%): -19.9

compound: CC1=NCC(C)S1 (centres undefined)
growth inhibition (%): -3.3

compound: Cc1ccc(Cl)cc1NC(=O)/C=C/c1ccccc1
growth inhibition (%): 3.05

meta.source: PubChem BioAssay (NCI)
